B1: LINE1-full (parent)
chain: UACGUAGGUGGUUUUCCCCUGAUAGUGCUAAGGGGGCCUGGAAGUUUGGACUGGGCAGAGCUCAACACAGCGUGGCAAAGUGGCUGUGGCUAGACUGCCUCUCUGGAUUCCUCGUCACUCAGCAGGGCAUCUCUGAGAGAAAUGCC

- Variants of: B1
- assay.remarks: self-cleavage, relative activity (ratio to wild type); higher = more cleavage; in vitro, sequencing; the parent is a self-cleaving ribozyme
Assign self-cleavage to each entry below.
// return a plain number; no unit text

*Q* Please look up its self-cleavage: A117U U119C
*A* 1.73

*Q* Please look up its self-cleavage: U13C U73C
*A* 1.17

*Q* Please look up its self-cleavage: U14C A92G
*A* 0.14

*Q* Please look up its self-cleavage: U47C A78C
*A* 1.96

*Q* Please look up its self-cleavage: U46C U85G
*A* 0.37

*Q* Please look up its self-cleavage: U100C G122C
*A* 2.12

*Q* Please look up its self-cleavage: C113A U132C
*A* 1.44

*Q* Please look up its self-cleavage: G35A A78G
*A* 0.9

*Q* Please look up its self-cleavage: U12G U26A
*A* 1.3

*Q* Please look up its self-cleavage: G34U A94G
*A* 0.26

*Q* Please look up its self-cleavage: A64C A140G
*A* 0.24

*Q* Please look up its self-cleavage: U15G A94U
*A* 0.58

*Q* Please look up its self-cleavage: U29C C63A
*A* 0.07

*Q* Please look up its self-cleavage: U15C A124U
*A* 1.32

*Q* Please look up its self-cleavage: U14A A141G
*A* 1

*Q* Please look up its self-cleavage: A2U U73C
*A* 0.56

*Q* Please look up its self-cleavage: G27A U46C
*A* 0.7

*Q* Please look up its self-cleavage: U20A G33U
*A* 0.66

*Q* Please look up its self-cleavage: A6G U115C
*A* 0.7

*Q* Please look up its self-cleavage: U104C C133U
*A* 1.72

*Q* Please look up its self-cleavage: C95U A117G
*A* 0.14

*Q* Please look up its self-cleavage: C19U A136U
*A* 1.41

*Q* Please look up its self-cleavage: U12C U73C
*A* 1.65

*Q* Please look up its self-cleavage: U47A A117U
*A* 1.25

*Q* Please look up its self-cleavage: A50U U104C
*A* 1.03

*Q* Please look up its self-cleavage: U73C A124G
*A* 0.64

*Q* Please look up its self-cleavage: G21A U91A
*A* 0.37

*Q* Please look up its self-cleavage: A94U U134G
*A* 0.2

*Q* Please look up its self-cleavage: U29C A107G
*A* 0.7

*Q* Please look up its self-cleavage: A6G A22U
*A* 1.11

*Q* Please look up its self-cleavage: A42G A117U
*A* 1.33

*Q* Please look up its self-cleavage: U15A U47C
*A* 0.9

*Q* Please look up its self-cleavage: U15A U119C
*A* 0.19

*Q* Please look up its self-cleavage: A94U U119C
*A* 0.28

*Q* Please look up its self-cleavage: A65G A78U
*A* 0.03

*Q* Please look up its self-cleavage: U100A U102A
*A* 0.49

*Q* Please look up its self-cleavage: A77G C98U
*A* 0.54

*Q* Please look up its self-cleavage: C76U A117C
*A* 2.66

*Q* Please look up its self-cleavage: U26C U91C
*A* 0.73

*Q* Please look up its self-cleavage: A117C G144A
*A* 1.79

*Q* Please look up its self-cleavage: A107G C113U
*A* 1.39

*Q* Please look up its self-cleavage: U47A A138U
*A* 1.59

*Q* Please look up its self-cleavage: G34A A140U
*A* 1.29

*Q* Please look up its self-cleavage: A43U A64U
*A* 0.43

*Q* Please look up its self-cleavage: U9A G126A
*A* 0.82

*Q* Please look up its self-cleavage: C84U A138G
*A* 0.13

*Q* Please look up its self-cleavage: A57G U108A
*A* 0.8

*Q* Please look up its self-cleavage: U20C A67G
*A* 0.74

*Q* Please look up its self-cleavage: C19U G72C
*A* 1.31

*Q* Please look up its self-cleavage: U104A A117G
*A* 1.67

*Q* Please look up its self-cleavage: U73A G86A
*A* 0.04

*Q* Please look up its self-cleavage: C38A A124G
*A* 0.68

*Q* Please look up its self-cleavage: U91C A140G
*A* 0.75

*Q* Please look up its self-cleavage: A42C U91C
*A* 0.4

*Q* Please look up its self-cleavage: A59G A124G
*A* 0.13

*Q* Please look up its self-cleavage: C28U G89U
*A* 0.06

*Q* Please look up its self-cleavage: G33U U132G
*A* 1.74

*Q* Please look up its self-cleavage: G44A A94G
*A* 0.27

*Q* Please look up its self-cleavage: A92U A136G
*A* 0.94

*Q* Please look up its self-cleavage: U23C G127C
*A* 1.12

*Q* Please look up its self-cleavage: A24U A64G
*A* 0.23

*Q* Please look up its self-cleavage: G83C
*A* 0.87

*Q* Please look up its self-cleavage: U13C C98G
*A* 0.15

*Q* Please look up its self-cleavage: A59U A77G
*A* 1.01

*Q* Please look up its self-cleavage: U26C U130G
*A* 1.61

*Q* Please look up its self-cleavage: U15C A57U
*A* 0.11
